- assay name: Circular dichroism (CD) of the selected peptide, percentage of alpha-helix
- Format: physicochemical
- assay context: CD at 20° C., 222 nm
Where no end group is shown, it is not given here.
Overview of reported degree of alpha-helices (percentage of alpha-helix, fn) across a group of substances:

Examples with answers:
LKKLLKLLKKLLKLKG [peptide 1]
15
LKKLLKLLKKLLK*LKG (LKKLLKLLKKLLK(dimethyl)LKG-NH2) [peptide 7, K* is dimethylated lysine]
2.7
LKK*LLKLLKKLLK*LKG (LKK(dimethyl)LLKLLKKLLK(dimethyl)LKG-NH2) [peptide 18, K* is dimethylated lysine]
4.9

Prompt line: What does the data say about its degree of alpha-helices (percentage of alpha-helix, fn)? Entry: LKKLLKLLK*KLLK*LKG (LKKLLKLLK(dimethyl)KLLK(dimethyl)LKG-NH2) [peptide 25, K* is dimethylated lysine]
Response line: 6.6

Prompt line: Again, but for LK*KLLKLLK*KLLK*LKG (LK(dimethyl)KLLKLLK(dimethyl)KLLK(dimethyl)LKG-NH2) [peptide 33, K* is dimethylated lysine]
Response line: 7.5

Prompt line: Again, but for LKK*LLKLLKKLLKLKG (LKK(dimethyl)LLKLLKKLLKLKG-NH2) [peptide 3, K* is dimethylated lysine]
Response line: 4.9

Prompt line: Again, but for LKK*LLKLLK*KLLKLKG (LKK(dimethyl)LLKLLK(dimethyl)KLLKLKG-NH2) [peptide 16, K* is dimethylated lysine]
Response line: 13
